Test Target: MCL-1/Bim (Homo sapiens (Human))
Sequence (Q07820 171-327): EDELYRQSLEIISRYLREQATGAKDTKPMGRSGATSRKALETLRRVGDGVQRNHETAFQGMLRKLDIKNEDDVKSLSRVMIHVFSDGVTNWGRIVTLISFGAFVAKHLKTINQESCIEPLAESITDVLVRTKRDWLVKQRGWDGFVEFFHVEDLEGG
Experiment Notes: MCL-1/Bim Binding AlphaLISA Assay
Assay Conditions: 6xHis-Mcl-1 (171-327) and biotinylated Bim peptide (51-76)
pIC50: −log10 of the molar value.
Quick rule: pIC50 of at least 9 means condition met, below that means condition not met.

Here are 5 molecules together with their reported answers.
{"Molecule": "CO[C@H]1/C=C/C[C@H](C)C[S@@](=O)(NC(=O)NCC2CC2)=NC(=O)c2ccc3c(c2)N(C[C@@H]2CC[C@H]21)C[C@@]1(CCCc2cc(Cl)ccc21)CO3", "Class Label": "condition met"}
{"Molecule": "CCOC(=O)N[S@]1(=O)=NC(=O)c2ccc3c(c2)N(C[C@@H]2CC[C@H]2[C@@H](OC)/C=C/CCC1)C[C@@]1(CCCc2cc(Cl)ccc21)CO3", "Class Label": "condition not met"}
{"Molecule": "COc1nn(C)cc1C(=O)N[S@@]1(=O)=NC(=O)c2ccc3c(c2)N(C[C@@H]2CC[C@H]2[C@@H](OC)/C=C/[C@H](OC(=O)CCc2ccccc2)[C@H](C)C1)C[C@@]1(CCCc2cc(Cl)ccc21)CO3", "Class Label": "condition met"}
{"Molecule": "COC1Cc2cc(C(=O)N[S@@]3(=O)=NC(=O)c4ccc5c(c4)N(C[C@@H]4CC[C@H]4[C@@H](OC)/C=C/C[C@H](C)C3)C[C@@]3(CCCc4cc(Cl)ccc43)CO5)cn2C1 (stereo partly drawn)", "Class Label": "condition met"}
{"Molecule": "CO[C@H]1/C=C/C[C@H](C)C[S@@](=O)(NC(=O)c2ccc3c(c2)COCC3)=NC(=O)c2ccc3c(c2)N(C[C@@H]2CC[C@H]21)C[C@@]1(CCCc2cc(Cl)ccc21)CO3", "Class Label": "condition met"}

Consider the additional molecule presented here.
Identify whether the reported pIC50 of the following molecule is 9 or greater: CO[C@H]1/C=C/C[C@H](C)[C@@H](C)[S@@](=O)(NC(=O)c2cnn(C3COC3)c2)=NC(=O)c2ccc3c(c2)N(C[C@@H]2CC[C@H]21)C[C@@]1(CCCc2cc(Cl)ccc21)CO3
condition met
